Cited source for all entries: patent US20100310590A1

MEASURED_TARGET: IgEs from a serum pool of patients allergic to birch pollen (RAST 3+ and 4+ to Bet v 2) (human)
ASSAY: REAST inhibition: serum pool pre-incubated with inhibitor, IgE captured on anti-IgE plate, biotinylated Bet v 2 detection
MEASURED_QUANTITY: percent inhibition of Bet v 2 wt binding to IgE at 1.45 ng inhibitor (%)
Field format: number, assumed %, no unit text.

A selection of reference data follows.
[
  {
    "BINDER": "SEQ ID NO:6 (protein) MSWQTYVDEHLMCDIDGQASNSLASAIVGHDGSVWAQSASFPQFKPQEITGIMKDFEEPGHLAPTGLHLGGIKYMVIQGEAGAVIRGGEGSGGITIKKTGQALVFGIYEEPVTPGQCNMVVERLGDYLIDQGL",
    "MEASUREMENT_UNITS": "%",
    "ASSAY_RESULT": 8.8
  },
  {
    "BINDER": "SEQ ID NO:3 (protein) MSWQTYVDEHLMCDIDGQASNSLASAIVGHDGSVWAQSSSFPQFTPQEITGIMKDFEEPGHLAPTGLHLGGIKYMVIQGEAGAVIRGKKGSGGITIKKTGQALVFGIYEEPVTPGQCNMVVERLGDYLIDQGL",
    "MEASUREMENT_UNITS": "%",
    "ASSAY_RESULT": 71
  },
  {
    "BINDER": "wild-type Bet v 2 allergen (SEQ ID NO:1) (protein) MSWQTYVDEHLMCDIDGQASNSLASAIVGHDGSVWAQSSSFPQFKPQEITGIMKDFEEPGHLAPTGLHLGGIKYMVIQGEAGAVIRGKKGSGGITIKKTGQALVFGIYEEPVTPGQCNMVVERLGDYLIDQGL",
    "MEASUREMENT_UNITS": "%",
    "ASSAY_RESULT": 82.6
  },
  {
    "BINDER": "SEQ ID NO:2 (protein) MSWQTYVDEHLMCDIDGQASNSLASAIVGHDGSVWAQSASFPQFKPQEITGIMKDFEEPGHLAPTGLHLGGIKYMVIQGEAGAVIRGKKGSGGITIKKTGQALVFGIYEEPVTPGQCNMVVERLGDYLIDQGL",
    "MEASUREMENT_UNITS": "%",
    "ASSAY_RESULT": 40.4
  }
]

Alright, here's another binder for you.
percent inhibition of Bet v 2 wt binding to IgE at 1.45 ng inhibitor measured on SEQ ID NO:4 (protein) MSWQTYVDEHLMCDIDGQASNSLASAIVGHDGSVWAQSSSFPQFKPQEITGIMKDFEEPGHLAPTGLHLGGIKYMVIQGEAGAVIRGGEGSGGITIKKTGQALVFGIYEEPVTPGQCNMVVERLGDYLIDQGL = 13.4
